System: Sam68 (KHDRBS1)
test: Sam68 small-molecule binders, primary screen, biochemical, small-molecule microarray, 635 nm fluorescence (AID 1125);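 note: score merges 667 nm channel intensity with signal to noise over triplicate slides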
conditionInfo: small-molecule microarray binding, higher = more signal
Listed compounds paired with reported composite z-score

[
  {
    "compound": "CCOC(=O)[C@H](Cc1ccccc1)NC(=O)CCC1CC(OC(=O)NCc2cccc3ccccc23)CC2(CCCC(COC(=O)NCc3ccccc3)O2)O1 (stereo partly specified)",
    "composite z-score": 0.712
  },
  {
    "compound": "CCOC(=O)NN=C1C[C@@H](O)[C@@H](O)[C@@H]2[C@@H]3C(=O)N(c4cccc(Oc5ccccc5)c4)C(=O)[C@@H]3CC[C@@H]12",
    "composite z-score": -0.114
  },
  {
    "compound": "C[C@@H]1NC(=O)[C@@H](C)COC(=O)[C@H](C)NC(=O)[C@@H](C)COC1=O",
    "composite z-score": 0.769
  },
  {
    "compound": "CON=C[C@@H](C)[C@H](OCc1ccccc1)C(C)C",
    "composite z-score": -0.295
  },
  {
    "compound": "CCOC(=O)[C@H](CC(C)C)NC(=O)CCC1CC(OC(=O)NCc2cccc3ccccc23)CC2(CCCC(COC(=O)NCc3cccc(C(F)(F)F)c3)O2)O1 (stereo partly specified)",
    "composite z-score": 0.046
  },
  {
    "compound": "CC(C)=CCCC(C)=CCON=C1C[C@@H](O)[C@@H](O)[C@@H]2[C@@H]3C(=O)N(C(C)(C)C)C(=O)[C@@H]3CC[C@@H]12",
    "composite z-score": 0.383
  },
  {
    "compound": "CO[C@H]1COC(=O)CC=C[C@@H](C)[C@H](NS(=O)(=O)c2ccc(C)cc2)COC(=O)CCC[C@@H]1C",
    "composite z-score": 0.515
  },
  {
    "compound": "CC(CCN1CCCc2nc(C)c(C)cc21)=NO[C@@H](C)c1cc(-c2c(C)cc(C)cc2C)no1",
    "composite z-score": 1.04
  },
  {
    "compound": "Cc1cc2c(nc1C)CCCCN2CC(C)ON=C1[C@H]2CCn3c(=O)n(-c4ccccc4)c(=O)n3[C@H]2[C@H](O)[C@@H]2O[C@H]12 (stereo partly specified)",
    "composite z-score": 0.573
  },
  {
    "compound": "CCOC(=O)[C@H](CC(C)C)NC(=O)CCC1CC(OC(=O)NCc2cccc3ccccc23)CC2(CCCC(COC(=O)NCC3CCCCC3)O2)O1 (stereo partly specified)",
    "composite z-score": 1.29
  },
  {
    "compound": "CO[C@H]1COC(=O)[C@@H](C)COC(=O)[C@@H](OCc2ccccc2)C=C[C@@H]1C",
    "composite z-score": -0.234
  },
  {
    "compound": "C[n+]1ccc(-c2ccc(CO)cc2)cc1",
    "composite z-score": 0.364
  },
  {
    "compound": "O=C1CCCC(C2=CCCCC2=O)C1 (stereo unspecified)",
    "composite z-score": -0.532
  },
  {
    "compound": "CC1O[C@H]2C3=C(C(=O)[C@@H]4O[C@@H]4[C@H]3O)[C@@H]1C1[C@@H](C)OC=C3[C@H](O)C4O[C@@H]4C(=NOCc4ccccc4)[C@]312 (stereo partly specified)",
    "composite z-score": -0.221
  },
  {
    "compound": "CCc1cc2c(nc1CC)CCN(CCC(C)=NO[C@@H](C)c1cn([C@H](CO)Cc3ccccc3)nn1)C2",
    "composite z-score": -0.0161
  },
  {
    "compound": "CC(C)(C)N1C(=O)[C@H]2[C@H]3[C@H](O)C=CC(=O)[C@@H]3CC[C@H]2C1=O",
    "composite z-score": -0.0221
  }
]

Source: PubChem BioAssay
